pIC50: −log10 of the molar value.
Endpoint summary: pIC50, system: Ribosomal protein S6 kinase beta-1 (Homo sapiens), multiple sources combined.
Sequence (P23443 whole entry): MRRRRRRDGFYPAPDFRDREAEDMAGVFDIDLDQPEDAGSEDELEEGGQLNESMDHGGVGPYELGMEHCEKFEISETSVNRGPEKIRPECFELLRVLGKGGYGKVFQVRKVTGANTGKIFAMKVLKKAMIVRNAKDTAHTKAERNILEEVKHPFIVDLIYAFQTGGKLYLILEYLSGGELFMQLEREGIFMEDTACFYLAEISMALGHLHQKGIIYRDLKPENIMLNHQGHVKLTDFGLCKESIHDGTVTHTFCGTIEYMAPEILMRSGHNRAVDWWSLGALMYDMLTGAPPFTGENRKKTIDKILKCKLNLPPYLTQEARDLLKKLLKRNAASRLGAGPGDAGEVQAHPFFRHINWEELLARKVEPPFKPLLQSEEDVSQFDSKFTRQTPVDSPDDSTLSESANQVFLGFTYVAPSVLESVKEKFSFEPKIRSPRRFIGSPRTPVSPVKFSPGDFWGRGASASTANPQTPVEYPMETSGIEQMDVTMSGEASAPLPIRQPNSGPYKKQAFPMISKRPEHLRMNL
Please use Y whenever pIC50 is not below 7, and N whenever it is.

Prompt: Does pIC50 meet or surpass 7 for COc1ccccc1N1CCN(c2ncnc3[nH]nc(Br)c23)CC1 ?
Completion: Y

Prompt: Does pIC50 meet or surpass 7 for Cn1ncc(Cl)c1-c1cc(C(=O)N[C@@H]2CN[C@H](CCO)C[C@H]2c2ccc(F)c(F)c2)oc1Cl ?
Completion: Y

Prompt: Does pIC50 meet or surpass 7 for CN(C)CCCn1cc(CNc2cc(Br)c3ncc(C#N)c(Nc4ccc(F)c(Cl)c4)c3c2)nn1 ?
Completion: N

Prompt: Does pIC50 meet or surpass 7 for CN(C)Cc1ccc(-c2cnn3c(-c4cccc(NC(=O)c5cccc(C(F)(F)F)c5)c4)ccnc23)cc1 ?
Completion: N

Prompt: Does pIC50 meet or surpass 7 for C[C@@H]1CC(=O)Nc2ncnc(N3CCC(c4nc(-c5ccc(F)c(C(F)(F)F)c5)cn4CCN4CCCC4)CC3)c21 ?
Completion: Y

Prompt: Does pIC50 meet or surpass 7 for C[C@@H]1CC(=O)Nc2ncnc(N3CCC(c4nc(CCC(F)(F)F)cn4CCN4CCCC4)CC3)c21 ?
Completion: N

Prompt: Does pIC50 meet or surpass 7 for O=C(Nc1ccc(-c2cn[nH]c2)cc1F)C1COc2ccccc2O1 (stereo not drawn) ?
Completion: N

Prompt: Does pIC50 meet or surpass 7 for CNc1nccc(-c2cccnc2Oc2ccc(NC(=O)c3cccc(C(F)(F)F)c3)cc2C)n1 ?
Completion: N

Prompt: Does pIC50 meet or surpass 7 for Cc1ccc(F)c(S(=O)(=O)Nc2ccc(-c3nc(OC[C@H]4CN(CCCCCCOCCOCCOCC(=O)N[C@H](C(=O)N5C[C@H](O)C[C@H]5C(=O)NCc5ccc(-c6scnc6C)cc5)C(C)(C)C)CCO4)c4cn[nH]c4n3)cc2)c1 ?
Completion: N

Prompt: Does pIC50 meet or surpass 7 for C[C@@H]1CC(=O)Nc2ncnc(N3CCC(c4nc(C5CCOCC5)cn4CCN4CCCC4)CC3)c21 ?
Completion: N

Prompt: Does pIC50 meet or surpass 7 for COc1cc2c(Oc3ccc(-c4cnc(Nc5ccc(F)cc5)n(C)c4=O)cc3F)ccnc2cc1OCCCN1CCOCC1 ?
Completion: N

Prompt: Does pIC50 meet or surpass 7 for COc1cc2ncc3c(N)nc4c(C)c(N)ccc4c3c2cc1OC ?
Completion: N

Prompt: Does pIC50 meet or surpass 7 for CC[C@H](N)COc1cncc(-c2cc3c(cnc4cc(OC)c(OC)cc43)c(N)n2)c1 ?
Completion: N

Prompt: Does pIC50 meet or surpass 7 for O=C(Nc1ccc(-c2ccnc(Nc3ccc(N4CCOCC4)cc3)n2)cc1)[C@H]1CCCN1 ?
Completion: N

Prompt: Does pIC50 meet or surpass 7 for Cc1c(C(=O)N2CCOc3ccc(-c4ccc(N)nc4)cc3C2)ccc(S(C)(=O)=O)c1F ?
Completion: N

Prompt: Does pIC50 meet or surpass 7 for COc1cc2ncc3c(N)nc(-c4cncc(OC[C@@H](N)Cc5ccncc5)c4)cc3c2cc1OC ?
Completion: N

Prompt: Does pIC50 meet or surpass 7 for Cn1cnc(CNc2cc(Br)c3ncc(C#N)c(Nc4ccc(F)c(Cl)c4)c3c2)c1 ?
Completion: N
